Hey, just so you know, these numbers are from ChEMBL document CHEMBL1126707.

- TESTED TARGET: Substance-K receptor (Homo sapiens, UniProt P21452)
- Sequence (P21452 whole entry): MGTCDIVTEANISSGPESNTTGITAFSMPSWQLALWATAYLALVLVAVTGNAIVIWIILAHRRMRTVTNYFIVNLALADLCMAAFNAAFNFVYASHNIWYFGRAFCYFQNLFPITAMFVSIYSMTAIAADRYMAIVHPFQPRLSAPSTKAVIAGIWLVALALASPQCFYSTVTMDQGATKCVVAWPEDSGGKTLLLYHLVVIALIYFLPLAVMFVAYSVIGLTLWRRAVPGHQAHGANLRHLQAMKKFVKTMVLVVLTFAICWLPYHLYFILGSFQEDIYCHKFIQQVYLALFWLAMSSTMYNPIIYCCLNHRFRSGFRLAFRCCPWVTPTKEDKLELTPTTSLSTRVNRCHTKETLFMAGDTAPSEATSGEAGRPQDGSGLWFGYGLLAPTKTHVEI
- PROTOCOL DESCRIPTION: Tested for binding affinity against human NK-2 receptor
REPORTED METRIC: IC50 (nM)

CN(Cc1ccccc1)C(=O)[C@H](Cc1ccccc1)NC(=O)[C@@H](Cc1cn(C(=O)CCC(=O)O)c2ccccc12)NC(=O)C[C@@H]1NC(=O)[C@@H]2C3CCC(CC3)N2C1=O | 129
CN(Cc1ccccc1)C(=O)[C@H](Cc1ccccc1)NC(=O)[C@@H](Cc1cn(C(=O)OCCCCCCN)c2ccccc12)NC(=O)C[C@@H]1NC(=O)[C@@H]2C3CCC(CC3)N2C1=O | 46
CN(Cc1ccccc1)C(=O)[C@H](Cc1ccccc1)NC(=O)[C@@H](Cc1cn(C(=O)CCCCCCN)c2ccccc12)NC(=O)C[C@@H]1NC(=O)[C@@H]2C3CCC(CC3)N2C1=O | 45
